test system: Hep G2 cells; experiment: In vitro toxicity (CellTiter-Glo cell viability), Hep G2; format: cell-based; settings: cirRNA (SEQ ID NO: 1) LNPs; Hep G2 cells;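 also: percent of untreated cells luminescence signal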
parameter-measured: In vitro Viability HepG2 (%)
One number for each entry, in %.

// below: answered compounds
CCCCCCCCCCCOC(=O)CCCCCN(CCCCCC(=O)OCCCCCCCCCCC)CCOC(=O)NCCCN(C)C [Lipid 153]    120
CCCCC/C=C\C/C=C\CCCCCCCCN(CCCCCCCC/C=C\C/C=C\CCCCC)CCOC(=O)NCc1ccncc1 [Lipid 35]    103
CCCCCCCCCCC(CCCCCCCC)COC(=O)CCCCCN(CCCCCC(=O)OCC(CCCCCCCC)CCCCCCCCCC)CCOC(=O)NCCCN(CC)CC (centres unmarked) [Lipid 172]    41
CCCCCCCCCC(=O)OCCCCCCCN(CCCCCCCCOC(=O)C(CCCCCC)CCCCCCCC)CCCOC(=O)NCCCN(C)C (centres unmarked) [Lipid 355]    123
CCCCCCCCCC(=O)OCCCCCCCN(CCCCCCCCOC(=O)C(CCCCCC)CCCCCCCC)CCOC(=O)NCc1ncc[nH]1 (centres unmarked) [Lipid 198]    104

Count: 4. Required value per item: In vitro Viability HepG2.
1. CCCCC/C=C\C/C=C\CCCCCCCCN(CCCCCC(=O)OCC(CCCCCCCC)CCCCCCCCCC)CCOC(=O)NCCN1CCOCC1 (centres unmarked) [Lipid 79]
2. CCCCC/C=C\C/C=C\CCCCCCCCN(CCCCCC(=O)OCC(CCCCCCCC)CCCCCCCCCC)CCOC(=O)NCc1ncc[nH]1 (centres unmarked) [Lipid 76]
3. CCCCCCCCCCC(CCCCCCCC)COC(=O)CCCCCN(CCCCCC(=O)OCC(CCCCCCCC)CCCCCCCCCC)CCOC(=O)NCCN(C)C (centres unmarked) [Lipid 170]
4. CCCCC/C=C\C/C=C\CCCCCCCCN(CCCCCCCC(=O)OC(CCCCCCCC)CCCCCCCC)CCOC(=O)NCc1ncc[nH]1 [Lipid 132]

[104, 121, 31, 97]

Count: 5. Required value per item: In vitro Viability HepG2.
1. CCCCCCCCC(CCCCCCCC)OC(=O)CCCCCCCN(CCCCCCCCOC(=O)C(CCCCCC)CCCCCCCC)CCCOC(=O)NCc1ncc[nH]1 (centres unmarked) [Lipid 345]
2. CCCCC/C=C\C/C=C\CCCCCCCCN(CCCCCCCC/C=C\CCCCCCCC)CCOC(=O)NCc1ncc[nH]1 [Lipid 68]
3. CCCCC/C=C\C/C=C\CCCCCCCCN(CCCCCCCC/C=C\CCCCCCCC)CCOC(=O)NCCN1CCN(C)CC1 [Lipid 70]
4. CCCCC/C=C\CCOC(=O)CCCCCN(CCCCCC(=O)OCC(CCCCCCCC)CCCCCCCCCC)CCOC(=O)NCCN1CCCCC1 (centres unmarked) [Lipid 245]
5. CCCCCCCCC(CCCCCC)C(=O)OCCCCCCCCN(CCCCCCCCOC(=O)C(CCCCCC)CCCCCCCC)CCCOC(=O)NCCN1CCN(C)CC1 (centres unmarked) [Lipid 377]

[99, 99, 120, 88, 71]

Data provenance: patent US12691070B2
